Data origin, for the record: patent US20090226527A1

# Test system: infectious agents (strains tested)
# procedure-details: organism not typed
# Format: cell-based
# stated-conditions: Rhizomucor spp; read-out: MIC[90]
Measured MIC accompanies every entry in the list below.
measurement-label: MIC (µg/mL)

>>> recorded_number("CCC(C)n1ncn(-c2ccc(N3CCN(c4ccc(OCC5COC(Cn6cncn6)(c6ccc(Cl)cc6Cl)O5)cc4)CC3)cc2)c1=O (stereo not shown)")
0.016
>>> recorded_number("C[C@@H](c1ncncc1F)[C@](O)(Cn1cncn1)c1ccc(F)cc1F")
2
>>> recorded_number("CCC([C@@H](C)O)n1ncn(-c2ccc(N3CCN(c4ccc(OC[C@@H]5CO[C@@](Cn6cncn6)(c6ccc(F)cc6F)C5)cc4)CC3)cc2)c1=O (stereo partly shown)")
0.016
>>> recorded_number("C[C@@H]1[C@H](O)[C@@H](C)/C=C/C=C/C=C/C=C/C=C/C=C/C=C/[C@H](O[C@@H]2O[C@H](C)[C@@H](O)[C@H](N)[C@@H]2O)C[C@@H]2O[C@](O)(C[C@@H](O)C[C@@H](O)[C@H](O)CC[C@@H](O)C[C@@H](O)CC(=O)O[C@H]1C)C[C@H](O)[C@H]2C(=O)O")
0.063

###

# Tested on: infectious agents (strains tested)
# procedure-details: microbe, parasite or virus in culture
# Format: cell-based
# stated-conditions: Pichia kudriavzevii, Candida krusei; read-out: Geometric Mean MIC
measurement-label: MIC

>>> result("CCC(C)n1ncn(-c2ccc(N3CCN(c4ccc(OCC5COC(Cn6cncn6)(c6ccc(Cl)cc6Cl)O5)cc4)CC3)cc2)c1=O (stereo not shown)")
"0.576 µg/mL"
>>> result("CCC([C@@H](C)O)n1ncn(-c2ccc(N3CCN(c4ccc(OC[C@@H]5CO[C@@](Cn6cncn6)(c6ccc(F)cc6F)C5)cc4)CC3)cc2)c1=O (stereo partly shown)")
"0.335 µg/mL"
>>> result("C[C@@H](c1ncncc1F)[C@](O)(Cn1cncn1)c1ccc(F)cc1F")
"0.346 µg/mL"
>>> result("C[C@@H]1[C@H](O)[C@@H](C)/C=C/C=C/C=C/C=C/C=C/C=C/C=C/[C@H](O[C@@H]2O[C@H](C)[C@@H](O)[C@H](N)[C@@H]2O)C[C@@H]2O[C@](O)(C[C@@H](O)C[C@@H](O)[C@H](O)CC[C@@H](O)C[C@@H](O)CC(=O)O[C@H]1C)C[C@H](O)[C@H]2C(=O)O")
"0.976 µg/mL"

###

# Test system: infectious agents (strains tested)
# procedure-details: microbe, parasite or virus in culture
# Format: cell-based
# stated-conditions: Lodderomyces parapsilosis, Candida parapsilosis; read-out: MIC[90]
Measured MIC accompanies every entry in the list below.
measurement-label: MIC (µg/mL)

>>> recorded_number("CCC([C@@H](C)O)n1ncn(-c2ccc(N3CCN(c4ccc(OC[C@@H]5CO[C@@](Cn6cncn6)(c6ccc(F)cc6F)C5)cc4)CC3)cc2)c1=O (stereo partly shown)")
0.125
>>> recorded_number("CCC(C)n1ncn(-c2ccc(N3CCN(c4ccc(OCC5COC(Cn6cncn6)(c6ccc(Cl)cc6Cl)O5)cc4)CC3)cc2)c1=O (stereo not shown)")
0.5
>>> recorded_number("C[C@@H](c1ncncc1F)[C@](O)(Cn1cncn1)c1ccc(F)cc1F")
0.125
>>> recorded_number("C[C@@H]1[C@H](O)[C@@H](C)/C=C/C=C/C=C/C=C/C=C/C=C/C=C/[C@H](O[C@@H]2O[C@H](C)[C@@H](O)[C@H](N)[C@@H]2O)C[C@@H]2O[C@](O)(C[C@@H](O)C[C@@H](O)[C@H](O)CC[C@@H](O)C[C@@H](O)CC(=O)O[C@H]1C)C[C@H](O)[C@H]2C(=O)O")
1
